As shown below, each of these binders has a reported interaction score value.
Biological target: T1, P7-AA
T1 chain: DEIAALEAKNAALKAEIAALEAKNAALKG
Experiment: two-hybrid library CCmax;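 also: natural log of median RNA to DNA barcode read ratio; higher means stronger binding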

| binder | interaction score |
| --- | --- |
| DEIAALEAKNAALKAEIAALEAKNAALKG [P7-AA] | -1.79 |
| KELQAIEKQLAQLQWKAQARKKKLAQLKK [4H_APH] | -1.87 |
| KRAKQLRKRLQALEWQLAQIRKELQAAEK [4H_APH3] | -1.07 |
| KRLKQIEKRLQAKEWEKAQLRKELQALRK [4H_APH4] | -1.7 |
| KRLKQLRKRKQAKRWEEAQIEKELQAIEK [4H_APH2] | -1.59 |
